All figures here come from the supplement of paper PMC9170038.

tested on: MS2 coat protein; test: apparent KD of MS2 coat protein, switch OFF state (with FMN for OFF switches, without FMN for ON switches); designed switch direction (-1 OFF switch, 1 ON switch): -1; higher = weaker reporter binding; settings: FMN input: 0 or 200 uM; Eterna round: R93 (includes R88 designs)
Each entry below carries its recorded apparent KD of MS2 coat protein.

| seq.string | study.system | apparent KD of MS2 coat protein (µM) |
| --- | --- | --- |
| GUGGAACAUGAGGAUCACCCAUGUGAGGAUAUAGGUUUUUGGGAAAAACUAGGAGAAACUAGAAGGCGCAAGAA [Exclusion 1.1] | MS2 coat protein | 0.022 |
| AAGAAGGCAGGAUAUACAAAAUAAAAGAAAAGAAAGAAAGAACAUGAGGAUCACCCAUGUAGAAGGGCCAAGAA [Seankhibre Amenemhet VI] | MS2 coat protein | 0.0372 |
| AAUAAGUGAGGAUAUGGAAAUAGUAGAUAAGAUACCCUAAACCAGAAGGCACAUGAGGAUCACCCAUGUAAAUA [JR_Exc004_Sub004] | MS2 coat protein | 0.0237 |
| CUCAAGUUAGGAUAUUCAAGAAAAGAAGAGAAAGAAAAGAAGAAGAAGGAACAUGAGGAUCACCCAUGUAAGAA [EteRNA is fun!] | MS2 coat protein | 0.026 |
| AAACUACUAGGAUAUACAACGGUGUCCUAACUACUAAGAAAACAUGAGGAUCACCCAUGUAGAAGGAGUAGUGA [Lauslabe] | MS2 coat protein | 0.0302 |
| AAAAAACAUGAGGAUCACCCAUGUCAGGAUAUCGAAAAGAAAAGAAAAGAAAGAAGAACGAGAAGGGACAAGAA [Menkaura] | MS2 coat protein | 0.0245 |
| UCUUGACAUGAGGAUCACCCAUGUCAGGAUAUAGUAGGACAAAUAAAUAAAAGUUCUACUAGAAGGGAUAUGGA [Design 18: G-U+] | MS2 coat protein | 0.0127 |
| AGUCUGAGAGGAUAUACAUGGGAAAAAAAAGUCAGAUCCCUACAUGAGGAUCACCCAUGUAGAAGGCUCUGACA [Ex2 Design 147: Sub-opt 11] | MS2 coat protein | 0.0114 |
| AAAAAGGUAGGAUAUACAUGAGGAUCACCCAUGUACAUAAAUGGAGAAAAAAACAGUUGUAGAAGGGCCAAAAA [Ex3 Malc#9] | MS2 coat protein | 0.0345 |
| AAAAAACAUGAGGAUCACCCAUGUUAGGAUAUGCUAUGGAAAAUAAAAAUAAAACAUAGCAGAAGGGACAAAAA [Denovo 1] | MS2 coat protein | 0.032 |
| AAGAGGUCAGGAUAUGCCCACCAGGAAAAACGUCCAGGUGGGCAGAAGGGACAUGAGGAUCACCCAUGUAAAGA [Opal 41] | MS2 coat protein | 0.114 |
| AACUGACAUGAGGAUCACCCAUGUCAGGAUAUGCUUCAUAAAAAAAAAAAAAAAUGAUGCAGAAGGGAUAUGGA [Design 36 :P Sub-opt 12] | MS2 coat protein | 0.0136 |
| AAGAAGUGAGGAUAUAGUUGCACUAGCUAAUGCUAGUGCAACUAGAAGGCACAUGAGGAUCACCCAUGUAAAAG [Meechl Ex4 2] | MS2 coat protein | 0.0467 |
| AAGAAGUGAGGAUAUGCUGCUCGUCACAAAAGUGAUGAGUAGCAGAAGGCACAUGAGGAUCACCCAUGUAAAGA [JL eternac mod 1] | MS2 coat protein | 0.0488 |
| GAAAAGUCAGGAUAUGCAGACAAAGCAAAAAAGCAAUGUCUGCAGAAGGGACAUGAGGAUCACCCAUGUAAAAA [Mat - Exclusion 4 - Mayanna - D115] | MS2 coat protein | 0.0452 |
| GGUUGGCGAGGAUAUACAUGAGGAUCACCCAUGUGAGAGAAAAAAGUGAGAAAGCAAAGUAGAAGGCGCUGACG [salish99-ex3-27] | MS2 coat protein | 0.321 |
| CUCUUGUGAGGAUAUCUAAGAAAAGAAAAGAAAGAAAAGAAAGAGAAGGCACAUGAGGAUCACCCAUGUAAGAA [EteRNA is fun!] | MS2 coat protein | 0.0846 |
| GGUUGGCGAGGAUAUACAUGAGGAUCACCCAUGUGAGAGAAAAAAGUGAGAAACAAAAGUAGAAGGCGCUGACG [salish99-ex3-26] | MS2 coat protein | 0.657 |
| AAAAAGUGAGGAUAUUCGGAUAGGAAAACGAAAACCUAUCCGAAGAAGGCACAUGAGGAUCACCCAUGUAAAGA [Mat - Exaclusion 4 - Eli mod - D40] | MS2 coat protein | 0.0402 |
| AAAGGGUCAGGAUAUCGAUGAAUAAUAAAACAAAGGAACAUCGAGAAGGGACAUGAGGAUCACCCAUGUAUAAC [May 80] | MS2 coat protein | 0.0484 |
| AAAAAACAUGAGGAUCACCCAUGUGAGGAUAUCUGUAUUCAAUCCUCGGAUUGAAUACAGAGAAGGCACAUGAA [Ex1: 611] | MS2 coat protein | 0.33 |
| AACAGUACAGGAUAUACAUGAGGAUCACCCAUGUGAAAAUUAAGUGGGAAACCACAGUGUAGAAGGGUACUGGA [Mat - Exclusion 3 - Eli mod - D54] | MS2 coat protein | 0.0519 |
| CUUAUGUCAGGAUAUCAGUAGUAAAAAAAUAAAAUUACUACUGAGAAGGGACAUGAGGAUCACCCAUGUCCGGG [EX4 369: Super Stable 69] | MS2 coat protein | 0.034 |
| AAAGCUGAAGGAUAUACUUGGAAAAAAAAAAAAAAAAAAAAACAUGAGGAUCACCCAUGUAGAAGGUCAGAUAA [Mat - Mod] | MS2 coat protein | 0.0367 |
| AACUGACAUGAGGAUCACCCAUGUCAGGAUAUGCAUCUUAGGAAAAAAAAACUAAGAUGCAGAAGGGACAUGGG [Design 3: Super Stable 3] | MS2 coat protein | 0.0158 |
| GCUGGCCAAGGAUAUACAUGAGGAUCACCCAUGUGAGAGAAAAAAGUGAGAAAGAAAAGUAGAAGGUGGGUAGG [salish99-ex3-111] | MS2 coat protein | 0.0569 |

---

system: MS2 coat protein; test: apparent KD of MS2 coat protein; designed switch direction (-1 OFF switch, 1 ON switch): 1; higher = weaker reporter binding; conditions: input ligand: microRNA oligo, concentration not stated
just bin them by apparent KD of MS2 coat protein: low: < 100 nM; intermediate: ≥ 100 nM and < 300 nM; high: ≥ 300 nM

| seq.string | class.name |
| --- | --- |
| GUUACAUGAGGAUCACCCAUGUAUGUGUGGGAGUAAGUGUCUUAGGAUAUCUAUUAUUUUAAUUAAGAGAAGGAAGAUUGUUGU [JMF's solution 20] (Eterna round: R96, puzzle: Same State NG 3) | intermediate |
| AGCUAUUAAUCAGGAUAUAGGGACAUGAGGAUCACCCAUGUAUACAUGAUGAAAUGUGGUCACCUCUAGAAGGGAUUACUAACA [SameState NG2 #42] (Eterna round: R96, puzzle: Same State NG 2) | intermediate |
| CGGGACAGACCCAACAUGAGGAUCACCCAUGUCCUCGCAGGUCAGGAUAUUAUUAGGAUCACCAGUGAGAAGGGACGGUGAACC (Eterna round: R96, puzzle: Same State NG 3) | intermediate |
| UAUAUUAUGGUAGGAUAUGUAGGAUAUGGCGAGAGCUAAGCUUGGAAGUCACUUCAGCCAGAAGGACAGAAGGACCAUAAUAUU [pwkr ssNG2 2FMN + F9.9] (Eterna round: R96, puzzle: Same State NG 2) | intermediate |
| GUGGUCAGACAUGAGGAUCACCCAUGUGGAAUAAAUAAGGAACAGGAUAUCUAAUAUAGGAUAUAAGAGAAGGGUUGGUUGGUG (Eterna round: R96, puzzle: Same State NG 3) | low |
| GGUCCAUCAUGAGGAUAUGGCACCUUAUUGGUGCCAGAAGGCAUGUCUAUUAGACAUGAGGAUCACCCAUGUAUAAAUUGGACC [Eli NG1ss - 91] (Eterna round: R96, puzzle: Same State NG 1) | intermediate |
| AAUUAAGAUCAAGGAUAUCACGUCGAUUAGACGUGAGAAGGUGAUCCAUACAUGAGGAUCACCCAUGUAUAACAUGAAUUAAUU [SSNG1/8-B2] (Eterna round: R96, puzzle: Same State NG 1) | high |
| AUAAUUUAUGCAGGAUAUGAUUAACAUGAGGAUCACCCAUGUGGUGUUGUGAGUAAGGAGAGUGAUCAGAAGGGCAUUUUUUUU [JMF's solution 70] (Eterna round: R96, puzzle: Same State NG 2) | high |
| AGCUAUUAAUCAGGAUAUGGUCACAUGAGGAUCACCCAUGUAUAGAUGAUAAAAUGUGGUCUACACUAGAAGGGAUUGCUAACA [SameState NG2 #59] (Eterna round: R96, puzzle: Same State NG 2) | low |
